# Experiment summary: qHTS for Inhibitors of the Functional Ribonucleoprotein Complex (vRNP) of Lassa (LASV) Arenavirus: Viability assay - alamar blue signal for LASV Primary Screen (AID 1347083); also: nearly all actives have a fitted effect of over 80% in size
# Conditions used: cell viability, alamar blue fluorescence (LASV minigenome counter-screen); series mostly up to 57.5 µM
Results filed as inconclusive are left out. Activity calls are given as the source filed them. Calls follow the shape of the full dose curve; tested in HEK293 reporter line.
Use one of these outcomes when replying: YES for active, NO for inactive

Molecule	Assigned category
OCCc1c[nH]c2ccccc12	NO
COC1=CC(=O)CC(C)C12Oc1cc(OC)cc(OC)c1C2=O (centres undefined)	NO
COc1cccc2c1C(=O)c1c(O)c3c(c(O)c1C2=O)C[C@@](O)(C(=O)CO)C[C@@H]3O[C@H]1C[C@H](N)[C@H](OC2CCCCO2)[C@H](C)O1 (some centres undefined)	YES
CC(COc1ccc(/C=C/c2ccccc2)cc1)[N+](C)(C)C (centres undefined)	NO

Any idea what this test logged for O[C@@H]1COC2[C@@H](O)CO[C@@H]21 (some centres undefined) ?
NO

Next: O=C(/C=C/c1ccccc1)NCCc1cnc[nH]1
NO

Next: C=CCOC(=O)c1ccccc1C(=O)OCC=C
NO

Next: CS(=O)(=O)N1CCN(Cc2cc3nc(-c4cccc5[nH]ncc45)nc(N4CCOCC4)c3s2)CC1
YES

Next: C[C@@H]1O[C@@H](O[C@H]2[C@H](O)[C@@H](O)[C@H](Oc3c(-c4ccc(O)cc4)oc4cc(O)cc(O)c4c3=O)O[C@@H]2CO)[C@H](O)[C@H](O)[C@H]1O
NO
